# Tested on: Fibroblast
# ASSAY_TEXT: Multiplex assay against human fibroblast
# Format: toxicity, cell-based
# CONDITION_SUMMARY: 12 h, 10 µM, compound concentration 10 uM, replicate 2
Each record's class is read off its Population Normal (%) using these ranges: Low: < 70%; Medium: ≥ 70% and < 90%; High: ≥ 90%

Query block: State the band of Cl.Cn1c2c(c3ccc(Cl)c(Cl)c31)C(C#N)C1(CCNCC1)NC2=O (stereo unspecified)
Result block: Medium

Query block: Same again, this time with Cc1ccc(S(=O)(=O)NC2c3ccccc3Oc3ccccc32)cc1
Result block: High

Query block: Now consider CC[C@@]1(O)C(=O)OCc2c1cc1n(c2=O)Cc2cc3ccccc3nc2-1 and answer again.
Result block: Low

Query block: Do the same for NC(=O)c1ccc2nc(-c3ccc(C4(N)CCC4)cc3)c(-c3ccccc3)n2n1 please
Result block: Low

Query block: One more molecule: CC[C@H](Nc1ncnc2[nH]cnc12)c1nc2cccc(F)c2c(=O)n1-c1ccccc1
Result block: Low

Query block: Another molecule: c1ccc(-c2oc3ncnc(NC[C@@H]4CCCO4)c3c2-c2ccccc2)cc1
Result block: High

Query block: Next: CC[C@@H]1C(=O)N(C)c2cnc(Nc3ccc(C(=O)NC4CCN(C)CC4)cc3OC)nc2N1C1CCCC1
Result block: Medium

----------
Would you mind telling me the reported Total Cell Count of each entry?
# Test system: HEK-293T
# ASSAY_TEXT: Multiplex assay against HEK293T
# Format: toxicity, cell-based
# CONDITION_SUMMARY: human, 24 h, 10 µM, compound concentration 10 uM, replicate 2
Form field (numeric): enter value without unit.

Query block: What value of measured Total Cell Count is listed for CC[C@@]1(O)C(=O)OCc2c1cc1n(c2=O)Cc2cc3ccccc3nc2-1 [CAMPTOTHECIN] ?
Result block: 1706

Query block: Next entry: CCCCN(CC)c1nc(C)nc2c1c(C)cn2-c1c(C)cc(C)cc1C.Cl
Result block: 231

Query block: Check Cc1ccc(NC(=O)Nc2cc(C(F)(F)F)ccc2F)cc1Nc1ccc2c(c1)NC(=O)/C2=C\c1ccc[nH]1 too.
Result block: 2446

Query block: // same read-out, input: Cl.Cn1c2c(c3ccc(Cl)c(Cl)c31)C(C#N)C1(CCNCC1)NC2=O (stereo unspecified)
Result block: 1033

Query block: Could you do the same for CN1C(=O)[C@@H](NC(=O)c2cc3ccccc3[nH]2)N=C(c2ccccc2)c2ccccc21 [DEVAZEPIDE] , please?
Result block: 245

Query block: Try Oc1cccc(-c2nc(N3CCOCC3)c3oc4ncccc4c3n2)c1 [PI-103] next.
Result block: 175

Query block: And what about the compound C=CC(=O)Nc1cc(-n2c(=O)ccc3cnc4ccc(-c5ccc(NS(C)(=O)=O)cc5)cc4c32)ccc1C ?
Result block: 228

Query block: // repeat for CCCc1cc(C)[nH]c(=O)c1CNC(=O)c1cc(-c2ccc(N3CCN(C(C)C)CC3)nc2)cc2c1cnn2C(C)C and report
Result block: 151

Query block: Continue with C[C@@H](Oc1cc(-n2cnc3ccc(CN4CCN(C)CC4)cc32)sc1C(N)=O)c1ccccc1C(F)(F)F [GSK-461364]
Result block: 207

Query block: Now try Cl.NC[C@@H]1O[C@H](C23CC4CC(CC(C4)C2)C3)Cc2c1ccc(O)c2O .
Result block: 205

Query block: # iterate: CC(Cc1ccc(O)c(O)c1)C(C)Cc1ccc(O)c(O)c1 (stereo unspecified) [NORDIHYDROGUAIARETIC ACID]
Result block: 255

Query block: Quick one: CCOC(=O)CCNc1cc(N2CCc3ccccc3CC2)nc(-c2ccccn2)n1
Result block: 1034

Query block: Further, for CC(C)[C@H](CO)Nc1nc(Nc2cccc(Cl)c2)c2ncn(C(C)C)c2n1 [PURVALANOLA] ?
Result block: 200

Query block: Next up: CC[C@H](Nc1ncnc2[nH]cnc12)c1nc2cccc(F)c2c(=O)n1-c1ccccc1 [IDELALISIB]
Result block: 2772

Query block: Again, but for Cc1c(Nc2ccc(S(=O)(=O)N3CCN(C)CC3)cc2F)nc2ccc(Nc3cnn(C4CC4)c3)cn2c1=O
Result block: 2721

Query block: Same question for CC(C)c1cc(Nc2nc(N3CCC[C@H](N)C3)ncc2C(N)=O)cc(C(C)C)n1 please.
Result block: 206
